Where do the numbers come from? From patent US20230141177A1.

Binding to HMW (BRU) by entry:
ASSAY TARGET: Aβ aggregates in the high molecular weight (HMW) fraction of pooled soluble human AD brain extract (>70 kDa to ~700 kDa) (human) (UniProt P05067)
EXPERIMENT SUMMARY: SPR, immobilized antibody, brain extract fraction at 100 µg/ml injected; Study 1
Your answer is read as BRU, so omit the unit and give the number.

Reference set, count: 3
Clone 5 (affinity matured VH with parental Vk, human IgG4 S241P / kappa) (antibody, V domains shown) VH: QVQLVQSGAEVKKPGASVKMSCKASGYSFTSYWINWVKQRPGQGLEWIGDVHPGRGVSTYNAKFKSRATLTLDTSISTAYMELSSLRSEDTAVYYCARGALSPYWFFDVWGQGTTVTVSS VL: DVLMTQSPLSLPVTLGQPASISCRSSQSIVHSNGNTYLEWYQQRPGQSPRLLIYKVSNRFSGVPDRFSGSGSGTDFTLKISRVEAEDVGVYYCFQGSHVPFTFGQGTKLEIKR :: 15
Clone 14 (affinity matured VH with parental Vk, human IgG4 S241P / kappa) (antibody, V domains shown) VH: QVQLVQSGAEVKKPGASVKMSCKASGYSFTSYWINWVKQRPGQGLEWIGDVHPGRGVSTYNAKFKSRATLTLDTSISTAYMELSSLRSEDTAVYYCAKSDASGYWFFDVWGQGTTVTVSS VL: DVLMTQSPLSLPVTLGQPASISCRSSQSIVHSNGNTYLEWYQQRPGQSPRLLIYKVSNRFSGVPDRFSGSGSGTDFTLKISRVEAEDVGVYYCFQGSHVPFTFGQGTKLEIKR :: 16
Clone 4 (affinity matured VH with parental Vk, human IgG4 S241P / kappa) (antibody, V domains shown) VH: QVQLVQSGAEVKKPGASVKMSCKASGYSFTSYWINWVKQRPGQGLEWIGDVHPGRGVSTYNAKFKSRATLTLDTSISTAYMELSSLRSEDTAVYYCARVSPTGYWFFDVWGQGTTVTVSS VL: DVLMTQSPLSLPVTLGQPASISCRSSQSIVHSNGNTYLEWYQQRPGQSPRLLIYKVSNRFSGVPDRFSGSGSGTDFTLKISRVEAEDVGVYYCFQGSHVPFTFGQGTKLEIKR :: 21

Next binder, Binding to HMW (BRU) to be filled in.
Item: parental antibody, PMN310 humanized antibody variant VH2/Vk5 (human IgG4 S241P / kappa) (antibody, V domains shown) VH: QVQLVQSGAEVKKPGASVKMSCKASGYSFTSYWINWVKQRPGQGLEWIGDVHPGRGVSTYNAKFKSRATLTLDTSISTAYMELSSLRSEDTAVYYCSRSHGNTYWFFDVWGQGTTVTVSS VL: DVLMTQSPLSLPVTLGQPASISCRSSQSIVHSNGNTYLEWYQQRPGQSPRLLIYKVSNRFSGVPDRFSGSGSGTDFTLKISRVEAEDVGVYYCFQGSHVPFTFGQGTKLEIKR | Binding to HMW (BRU): 27
